Please go through the items and note down their normalized RNA/DNA level without ligand (log10).
B1: library; a variant is named by its letters at N, in order (parent)
chain: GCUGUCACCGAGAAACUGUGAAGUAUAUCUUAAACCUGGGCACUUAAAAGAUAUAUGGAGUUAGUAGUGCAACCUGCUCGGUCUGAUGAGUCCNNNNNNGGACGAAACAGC

Variants of: B1
TEST_DESCRIPTION: normalized RNA/DNA level without ligand (relative to sTRSVctl = 100) (log10 (% of sTRSVctl)); HEK293T; ligand: cyclic di-GMP (c-di-GMP-II aptamer); higher = less ribozyme self-cleavage, higher mRNA level
CONDITION_PARAMETERS: reporter: mCherry (pCS4076), ligand present: no

*Q* Item AUCCUU has what recorded normalized RNA/DNA level without ligand (log10)?
*A* 1.74

*Q* Similarly, AUGGUA ?
*A* 1.46

*Q* Can you handle CGCUUU next?
*A* 1.46

*Q* Then what about the variant CCCGGU ?
*A* 1.72

*Q* And then UCAUAU , what is it?
*A* 1.54

*Q* Query CCCGCU next
*A* 1.74

*Q* // repeat for GAUCGG and report
*A* 1.75

*Q* Okay, and ACUCAU ?
*A* 1.61

*Q* What do we get for AAUUAU ?
*A* 1.67

*Q* Try CCAGAU next.
*A* 1.65

*Q* Then this variant: ACGUAU
*A* 1.34

*Q* And for GUCACA ?
*A* 1.66

*Q* What would you report for AGGUAC ?
*A* 1.67

*Q* How about this variant: GUCAGG
*A* 1.74

*Q* Cool, now AGGUAG
*A* 1.54

*Q* And then CGACCC , what is it?
*A* 1.75

*Q* Now give it for GACGCU too.
*A* 1.71

*Q* Now the variant GAGACA
*A* 1.8

*Q* And the next one, AUCCUG ?
*A* 1.67

*Q* Same thing, different variant: CAGGUC
*A* 1.76

*Q* Another variant to look at: UGGCUU
*A* 1.69

*Q* Then GGCGAU ?
*A* 1.59
